test: Pharmacokinetic DDI study in rats, intravenous Y101 and/or ETV; format: in vivo, Sprague–Dawley (SD) rats; conditions: Sprague-Dawley, rat, i.v. Y101 25 mg/kg alone, plasma, n = 4
TEST READOUT: Cmax (ng/mL)
Report only the number, with the unit ng/mL understood.

Cmax for C[N+](C)([O-])CCOc1ccc(CC(NC(=O)c2ccccc2)C(=O)O)cc1 (centres unmarked) [M9] is 134

Cmax for CN(C)CCOc1ccc(CC(NC(=O)c2ccccc2)C(=O)O)cc1 (centres unmarked) [M8] is 2660

----------
test: Pharmacokinetic DDI study in rats, oral Y101 and/or ETV; format: in vivo, Sprague–Dawley (SD) rats; conditions: Sprague-Dawley, rat, plasma, oral ETV 0.06 mg/kg alone, n = 4
TEST READOUT: half-life (h)
Report only the number, with the unit h understood.

half-life for C=C1[C@H](CO)[C@@H](O)C[C@@H]1n1cnc2c(=O)[nH]c(N)nc21 is 1.1

----------
assay: Pharmacokinetic DDI study in rats, oral Y101 and/or ETV; format: in vivo, Sprague–Dawley (SD) rats; settings: Sprague-Dawley, rat, oral Y101 60 mg/kg alone, plasma, n = 4
TEST READOUT: AUC(0-t) (ng·h/mL)
Report only the number, with the unit ng·h/mL understood.

AUC(0-t) for CN(C)CCOc1ccc(C[C@H](NC(=O)c2ccccc2)C(=O)N[C@H](CO)Cc2ccccc2)cc1.Cl [Y101] is 1570

AUC(0-t) for C[N+](C)([O-])CCOc1ccc(CC(NC(=O)c2ccccc2)C(=O)O)cc1 (stereo not drawn) [M9] is 641

AUC(0-t) for CN(C)CCOc1ccc(CC(NC(=O)c2ccccc2)C(=O)O)cc1 (stereo not drawn) [M8] is 10100

----------
Assign half-life to each entry below.
test: Pharmacokinetic DDI study in rats, oral Y101 and/or ETV; type: in vivo, Sprague–Dawley (SD) rats; conditions: Sprague-Dawley, rat, plasma, oral Y101 60 mg/kg alone, n = 4
Report only the number, with the unit h understood.

half-life for C[N+](C)([O-])CCOc1ccc(CC(NC(=O)c2ccccc2)C(=O)O)cc1 (stereo not drawn) is 1.16

half-life for CN(C)CCOc1ccc(C[C@H](NC(=O)c2ccccc2)C(=O)N[C@H](CO)Cc2ccccc2)cc1.Cl is 0.998

half-life for CN(C)CCOc1ccc(CC(NC(=O)c2ccccc2)C(=O)O)cc1 (stereo not drawn) is 3.44

----------
assay: Pharmacokinetic DDI study in rats, intravenous Y101 and/or ETV; type: in vivo, Sprague–Dawley (SD) rats; conditions: Sprague-Dawley, rat, i.v. Y101 25 mg/kg + ETV 0.06 mg/kg, plasma, n = 4
TEST READOUT: AUC(0-inf)
In your response, the unit should come after the numeric value.

AUC(0-inf) for C=C1[C@H](CO)[C@@H](O)C[C@@H]1n1cnc2c(=O)[nH]c(N)nc21 is 6.76 ng·h/mL

AUC(0-inf) for CN(C)CCOc1ccc(CC(NC(=O)c2ccccc2)C(=O)O)cc1 (stereo not shown) is 6150 ng·h/mL

AUC(0-inf) for C[N+](C)([O-])CCOc1ccc(CC(NC(=O)c2ccccc2)C(=O)O)cc1 (stereo not shown) is 471 ng·h/mL

AUC(0-inf) for CN(C)CCOc1ccc(C[C@H](NC(=O)c2ccccc2)C(=O)N[C@H](CO)Cc2ccccc2)cc1.Cl is 1690 ng·h/mL

----------
Assign Cmax to each entry below.
test: Pharmacokinetic study in rats, intravenous Y101 with or without PRO; type: in vivo, Sprague–Dawley (SD) rats; conditions: male, Sprague-Dawley, rat, plasma, iv, 25 mg/kg, i.v. Y101 25 mg/kg alone, n = 3
Report only the number, with the unit ng/mL understood.

Cmax for C[N+](C)([O-])CCOc1ccc(CC(NC(=O)c2ccccc2)C(=O)O)cc1 (centres unmarked) is 156

Cmax for CN(C)CCOc1ccc(CC(NC(=O)c2ccccc2)C(=O)O)cc1 (centres unmarked) is 3890

----------
Assay: Renal excretion study in rats (cumulative urinary excretion, renal clearance)
Type: in vivo, Sprague–Dawley (SD) rats
Conditions: Sprague-Dawley, rat, urine, iv, 25 mg/kg, i.v. Y101 25 mg/kg + PRO 100 mg/kg, read-out: CLR (renal clearance) (converted)
Experimental: To investigate the effects of PRO on the renal excretion of Y101 and its metabolites, rats received an intravenous dose of Y101 (25 mg/kg) or Y101 + PRO (25 mg/kg for Y101 and 100 mg/kg for PRO) via the caudal vein. In order to verify the DDI between Y101 and ETV in renal excretion, rats received an intravenous dose of Y101 (25 mg/kg) and/or ETV (0.06 mg/kg) by caudal vein. […] The cumulative urinary excretion and renal clearance (CLR) were calculated as previously described. […]
TEST READOUT: CL renal (mL/min/kg)
Report only the number, with the unit mL/min/kg understood.

CL renal for CN(C)CCOc1ccc(C[C@H](NC(=O)c2ccccc2)C(=O)N[C@H](CO)Cc2ccccc2)cc1.Cl is 5.28

CL renal for CN(C)CCOc1ccc(CC(NC(=O)c2ccccc2)C(=O)O)cc1 (stereo not drawn) is 82.7

CL renal for C[N+](C)([O-])CCOc1ccc(CC(NC(=O)c2ccccc2)C(=O)O)cc1 (stereo not drawn) is 2

----------
assay: Pharmacokinetic DDI study in rats, oral Y101 and/or ETV; assay type: in vivo, Sprague–Dawley (SD) rats; conditions: Sprague-Dawley, rat, oral Y101 60 mg/kg + ETV 0.06 mg/kg, plasma, n = 4
TEST READOUT: AUC(0-inf) (ng·h/mL)
Report only the number, with the unit ng·h/mL understood.

AUC(0-inf) for C=C1[C@H](CO)[C@@H](O)C[C@@H]1n1cnc2c(=O)[nH]c(N)nc21 is 7.41

AUC(0-inf) for CN(C)CCOc1ccc(CC(NC(=O)c2ccccc2)C(=O)O)cc1 (stereo not shown) is 10400

AUC(0-inf) for CN(C)CCOc1ccc(C[C@H](NC(=O)c2ccccc2)C(=O)N[C@H](CO)Cc2ccccc2)cc1.Cl is 1680

AUC(0-inf) for C[N+](C)([O-])CCOc1ccc(CC(NC(=O)c2ccccc2)C(=O)O)cc1 (stereo not shown) is 657

----------
experiment: Pharmacokinetic DDI study in rats, oral Y101 and/or ETV; assay type: in vivo, Sprague–Dawley (SD) rats; conditions: Sprague-Dawley, rat, oral Y101 60 mg/kg + ETV 0.06 mg/kg, plasma, n = 4
TEST READOUT: AUC(0-t) (ng·h/mL)
Report only the number, with the unit ng·h/mL understood.

AUC(0-t) for C=C1[C@H](CO)[C@@H](O)C[C@@H]1n1cnc2c(=O)[nH]c(N)nc21 [ETV, entecavir] is 6.76

AUC(0-t) for CN(C)CCOc1ccc(C[C@H](NC(=O)c2ccccc2)C(=O)N[C@H](CO)Cc2ccccc2)cc1.Cl [Y101] is 1620

AUC(0-t) for CN(C)CCOc1ccc(CC(NC(=O)c2ccccc2)C(=O)O)cc1 (stereo not shown) [M8] is 10300

AUC(0-t) for C[N+](C)([O-])CCOc1ccc(CC(NC(=O)c2ccccc2)C(=O)O)cc1 (stereo not shown) [M9] is 645

----------
experiment: Pharmacokinetic DDI study in rats, intravenous Y101 and/or ETV; type: in vivo, Sprague–Dawley (SD) rats; conditions: Sprague-Dawley, rat, plasma, i.v. Y101 25 mg/kg alone, n = 4
TEST READOUT: Tmax (min)
Report only the number, with the unit min understood.

Tmax for C[N+](C)([O-])CCOc1ccc(CC(NC(=O)c2ccccc2)C(=O)O)cc1 (centres unmarked) is 67.8

Tmax for CN(C)CCOc1ccc(CC(NC(=O)c2ccccc2)C(=O)O)cc1 (centres unmarked) is 30

----------
assay: Pharmacokinetic study in rats, intravenous Y101 with or without PRO; assay type: in vivo, Sprague–Dawley (SD) rats; settings: male, Sprague-Dawley, rat, plasma, iv, 25 mg/kg, i.v. Y101 25 mg/kg alone, n = 3
TEST READOUT: Tmax (min)
Report only the number, with the unit min understood.

Tmax for CN(C)CCOc1ccc(CC(NC(=O)c2ccccc2)C(=O)O)cc1 (centres unmarked) is 40

Tmax for C[N+](C)([O-])CCOc1ccc(CC(NC(=O)c2ccccc2)C(=O)O)cc1 (centres unmarked) is 70.2

----------
experiment: Pharmacokinetic DDI study in rats, intravenous Y101 and/or ETV; type: in vivo, Sprague–Dawley (SD) rats; settings: Sprague-Dawley, rat, i.v. ETV 0.06 mg/kg alone, plasma, n = 4
TEST READOUT: AUC(0-t)

AUC(0-t) for C=C1[C@H](CO)[C@@H](O)C[C@@H]1n1cnc2c(=O)[nH]c(N)nc21 [ETV, entecavir] is 9.21 ng·h/mL

----------
assay: Pharmacokinetic study in rats, intravenous Y101 with or without PRO; type: in vivo, Sprague–Dawley (SD) rats; details: male, Sprague-Dawley, rat, plasma, iv, 25 mg/kg, i.v. Y101 25 mg/kg + PRO 100 mg/kg, n = 3
TEST READOUT: Vd (L/kg)
Report only the number, with the unit L/kg understood.

Vd for CN(C)CCOc1ccc(C[C@H](NC(=O)c2ccccc2)C(=O)N[C@H](CO)Cc2ccccc2)cc1.Cl [Y101] is 12.5
